The variants listed here are annotated with their protein stability index.
B1: GMCL1 (parent)
chain: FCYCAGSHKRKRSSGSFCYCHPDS

Variants of: B1
Assay: protein stability index of a GFP-peptide fusion (GPS, HEK-293T) (PSI 1-6); higher = more stable;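 note: lentivirally expressed fusions sorted by FACS into six bins by GFP to DsRed ratio, PSI derived from sequencing read proportions per bin multiplied by bin number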
Conditions: c terminus: a fixed tail appended
Number only, please.

* FCYCAGSHKRKRSSGSFCYCHVDS | 1.96

Prompt: Specify measured protein stability index for FCYCAGSHKRKRSWGSFCYCHPDS .
Completion: 2.03

Prompt: Specify measured protein stability index for FCYCAGSHKRKRSSGSNCYCHPDS .
Completion: 2.06

Prompt: Specify measured protein stability index for FCYCAGSHKRKRSSGSFCICHPDS .
Completion: 2.52

Prompt: Specify measured protein stability index for FCYCAGSHKRKRSSGSFCLCHPDS .
Completion: 1.96

Prompt: Specify measured protein stability index for FCYCAGSHKRWRSSGSFCYCHPDS .
Completion: 2.03

Prompt: Specify measured protein stability index for FCYCAGSHKRKHSSGSFCYCHPDS .
Completion: 1.96

Prompt: Specify measured protein stability index for FCYCAGTHKRKRSSGSFCYCHPDS .
Completion: 2.98

Prompt: Specify measured protein stability index for FCYCAGSPKRKRSSGSFCYCHPDS .
Completion: 1.94

Prompt: Specify measured protein stability index for FCYCAGSHKRKRSSGSDCYCHPDS .
Completion: 2.84

Prompt: Specify measured protein stability index for FCYCAGSHVRKRSSGSFCYCHPDS .
Completion: 2.57

Prompt: Specify measured protein stability index for FCYCAGSHKRKRSSGSICYCHPDS .
Completion: 2.05

Prompt: Specify measured protein stability index for QCYCAGSHKRKRSSGSFCYCHPDS .
Completion: 3.82

Prompt: Specify measured protein stability index for FCYWAGSHKRKRSSGSFCYCHPDS .
Completion: 2.56

Prompt: Specify measured protein stability index for FCYCQGSHKRKRSSGSFCYCHPDS .
Completion: 1.94

Prompt: Specify measured protein stability index for FCYCAISHKRKRSSGSFCYCHPDS .
Completion: 1.54
